# System: Enterococcus faecium
# Protocol notes: In vitro antibacterial activity against vancomycin-resistant Enterococcus faecium 2006 (VRE.2)
# Assay type: functional
Endpoint: log10 of MIC (log10 of the value in mg/L)
Values are log10 of MIC in mg/L.

Q: What log10 of MIC value was documented for this compound, CC(=O)NC[C@H]1CN(c2ccc(N3CC=C(c4oncc4C(N)=O)CC3)c(F)c2)C(=O)O1 ?
Ans: 0.00

Q: Request: CCOC(=O)c1cnoc1C1=CCN(c2ccc(N3C[C@H](CNC(C)=O)OC3=O)cc2F)CC1
Ans: 0.90

Q: Request: CC(=O)NC[C@H]1CN(c2ccc(N3CC=C(c4oncc4C)CC3)c(F)c2)C(=O)O1
Ans: 0.30

Q: Request: CC(=O)NC[C@H]1CN(c2ccc(N3CC=C(c4oncc4C(=O)N(C)C)CC3)c(F)c2)C(=O)O1
Ans: 0.90

Q: Request: CC(=O)NC[C@H]1CN(c2ccc(N3CCOCC3)c(F)c2)C(=O)O1
Ans: 0.30

Q: Request: CC(=O)NC[C@H]1CN(c2ccc(N3CC=C(c4oncc4Cl)CC3)c(F)c2)C(=O)O1
Ans: 1.51

====

Listed here: items and their measured MIC.
# System: Enterococcus faecium
# Protocol notes: In vitro antibacterial activity against vancomycin-resistant Enterococcus faecium 2006 (VRE.2)
# Assay type: functional

Take a look at these entries with their results.
CC(=O)NC[C@H]1CN(c2ccc(N3CC=C(c4oncc4C(F)(F)F)CC3)c(F)c2)C(=O)O1	> 64 µg/mL
CC(=O)NC[C@H]1CN(c2ccc(N3CC=C(c4oncc4C#N)CC3)c(F)c2)C(=O)O1	4 µg/mL
CC(=O)NC[C@H]1CN(c2ccc(N3CC=C(c4conc4Cl)CC3)c(F)c2)C(=O)O1	8 µg/mL

Q: What MIC value was documented for this compound, CN[C@H](CC(C)C)C(=O)N[C@H]1C(=O)N[C@@H](CC(N)=O)C(=O)N[C@H]2C(=O)N[C@H]3C(=O)N[C@H](C(=O)N[C@H](C(=O)O)c4cc(O)cc(O)c4-c4cc3ccc4O)[C@H](O)c3ccc(c(Cl)c3)Oc3cc2cc(c3O[C@@H]2O[C@H](CO)[C@@H](O)[C@H](O)[C@H]2O[C@H]2C[C@](C)(N)[C@H](O)[C@H](C)O2)Oc2ccc(cc2Cl)[C@H]1O [VANCOMYCIN] ?
Ans: > 64 µg/mL

Q: Request: CC(=O)NC[C@H]1CN(c2ccc(N3CC=C(c4conc4C#N)CC3)c(F)c2)C(=O)O1
Ans: 2 µg/mL
